Species on record: Homo sapiens
test_protocol: Selectivity ratio of Ki for human recombinant GABAA alpha-3-beta-2-gamma-2S receptor to Ki for human recombinant GABAA alpha-1-beta-2-gamma-2S receptor
measurement_kind: Ratio Ki
Give the figure only, with no unit attached.

Form field Ratio Ki, entry CCCCC(=O)c1c[nH]c2ccc(Cc3cccnc3)cc2c1=O : 18

Record CCc1ccc2[nH]cc(C(=O)CC3CCCC3)c(=O)c2c1 , field Ratio Ki: 15

The measured Ratio Ki associated with CCCCC(=O)c1c[nH]c2ccc(CCCc3ccccc3)cc2c1=O reads 4

---

Species on record: Homo sapiens
test_protocol: Selectivity ratio of Ki for human recombinant GABAA alpha-3-beta-2-gamma-2S receptor to Ki for human recombinant GABAA alpha-1-beta-2-gamma-2S receptor
The threshold is 7. Values of Ratio Ki beneath it are tagged yes; values meeting or exceeding it are tagged no.

Solved entries:
>>> assigned_category("O=C(CC1CCCC1)c1c[nH]c2ccc(Cc3cccnc3)cc2c1=O")
"no"
>>> assigned_category("CCCCC(=O)c1c[nH]c2ccc(Cc3ccccn3)cc2c1=O")
"no"
>>> assigned_category("CCCCC(=O)c1c[nH]c2ccccc2c1=O")
"no"

Given the entry CCOC(=O)c1c[nH]c2ccc(Cc3ccccc3)cc2c1=O , would its reported Ratio Ki be below 7?
no

Take the compound CCCCC(=O)c1c[nH]c2ccc(Cc3ccncc3)cc2c1=O and say whether its Ratio Ki is less than 7.
yes

Does this compound meet the criterion Ratio Ki < 7? CCCCC(=O)c1c[nH]c2ccc(Cc3ccccc3)cc2c1=O
yes

Ratio Ki strictly < 7 for this compound? O=C(CC1CCCC1)c1c[nH]c2ccc(Cc3ccccc3)cc2c1=O
no

Hello, is Ratio Ki of the following compound strictly smaller than 7? CCCC(=O)c1c[nH]c2ccc(Cc3ccccc3)cc2c1=O
no

Lab note: confirm whether the reported Ratio Ki for this compound is below 7, equality not counting. compound: CCCCC(=O)c1c[nH]c2ccc(CCc3ccccc3)cc2c1=O
yes

Here's an entry: CCOC(=O)c1cnc2ccc(CC)cc2c1O . Is its Ratio Ki below 7?
no

Does this compound meet the criterion Ratio Ki < 7? CCCCC(=O)c1c[nH]c2ccc(Cc3ccc4ccccc4c3)cc2c1=O
yes

Where do the numbers come from? From ChEMBL document CHEMBL1157503.
